Molecular target: UniProt:P01031
Sequence (P01031 19-1676): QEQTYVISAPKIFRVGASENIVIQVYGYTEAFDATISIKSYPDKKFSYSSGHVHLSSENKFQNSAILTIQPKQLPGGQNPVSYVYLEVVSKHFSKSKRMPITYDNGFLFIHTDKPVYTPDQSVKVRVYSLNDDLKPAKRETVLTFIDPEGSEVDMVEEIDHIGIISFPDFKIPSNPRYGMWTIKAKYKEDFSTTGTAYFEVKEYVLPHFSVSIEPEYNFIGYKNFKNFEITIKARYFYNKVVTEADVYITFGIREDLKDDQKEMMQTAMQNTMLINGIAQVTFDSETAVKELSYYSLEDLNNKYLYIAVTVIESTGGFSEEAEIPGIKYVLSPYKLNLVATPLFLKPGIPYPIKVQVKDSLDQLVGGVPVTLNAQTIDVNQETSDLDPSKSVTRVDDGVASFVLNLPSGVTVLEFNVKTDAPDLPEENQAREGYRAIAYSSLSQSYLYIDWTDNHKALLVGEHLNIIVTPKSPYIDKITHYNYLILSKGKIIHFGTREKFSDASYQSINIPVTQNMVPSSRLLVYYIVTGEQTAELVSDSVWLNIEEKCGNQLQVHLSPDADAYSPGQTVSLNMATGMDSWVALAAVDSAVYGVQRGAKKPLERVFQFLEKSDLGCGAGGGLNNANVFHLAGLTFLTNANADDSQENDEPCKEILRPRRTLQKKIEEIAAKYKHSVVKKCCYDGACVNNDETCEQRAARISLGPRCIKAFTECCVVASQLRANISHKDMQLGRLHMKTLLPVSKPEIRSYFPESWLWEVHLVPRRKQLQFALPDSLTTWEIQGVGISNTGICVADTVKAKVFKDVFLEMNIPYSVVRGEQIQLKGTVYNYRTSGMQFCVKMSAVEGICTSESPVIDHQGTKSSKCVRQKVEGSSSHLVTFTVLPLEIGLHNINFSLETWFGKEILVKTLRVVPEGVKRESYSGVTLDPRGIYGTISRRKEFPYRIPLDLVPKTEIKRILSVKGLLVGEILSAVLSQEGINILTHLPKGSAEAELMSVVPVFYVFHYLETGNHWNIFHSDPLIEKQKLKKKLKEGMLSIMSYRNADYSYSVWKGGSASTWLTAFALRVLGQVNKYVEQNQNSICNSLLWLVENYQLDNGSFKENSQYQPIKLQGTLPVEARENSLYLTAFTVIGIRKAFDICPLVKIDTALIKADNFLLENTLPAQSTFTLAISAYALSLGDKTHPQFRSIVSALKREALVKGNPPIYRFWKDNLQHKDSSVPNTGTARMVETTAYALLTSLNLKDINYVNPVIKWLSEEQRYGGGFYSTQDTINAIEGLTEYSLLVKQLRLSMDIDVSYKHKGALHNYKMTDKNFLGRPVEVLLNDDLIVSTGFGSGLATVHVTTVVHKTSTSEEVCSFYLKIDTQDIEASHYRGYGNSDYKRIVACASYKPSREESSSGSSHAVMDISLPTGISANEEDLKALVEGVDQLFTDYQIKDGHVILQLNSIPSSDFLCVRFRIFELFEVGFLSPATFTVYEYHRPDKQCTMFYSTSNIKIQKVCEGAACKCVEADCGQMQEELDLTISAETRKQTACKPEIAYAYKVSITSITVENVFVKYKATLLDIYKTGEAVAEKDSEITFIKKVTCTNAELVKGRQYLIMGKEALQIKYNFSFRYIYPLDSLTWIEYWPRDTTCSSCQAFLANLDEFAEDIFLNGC
Assay: Human hemolysis assay (RBC lysis assay using complete human sera)
Type: cell-based
Design: with complete human sera (Complement Technology, Tyler Tex.) and polypeptides; tissue Complement Technology, Tyler Tex; host or cells: complete human serum
Settings: inhibition of lysis of antibody-sensitized sheep erythrocytes, complete human sera
Starred links: 1 amine or outer side, 2 acyl side, 3 side chain; linkers in the order of their positions; H or OH if unused. Positions of bridges follow the written chain, without caps; N, C: chain ends. Non-standard residues stand in square brackets, D forms with d. Residues, ends and D or L forms follow the SMILES beside them. Trp(7-aza) = N[C@@H](Cc1c[nH]c2ncccc12)C(=O)O; mXylylene = c1cc(C[*:1])cc(C[*:2])c1; Phg = N[C@H](C(=O)O)c1ccccc1; Tle = CC(C)(C)[C@H](N)C(=O)O; NMeS = CN[C@@H](CO)C(=O)O; NMeA = CN[C@@H](C)C(=O)O; Pra = C#CC[C@H](N)C(=O)O; Nva = CCC[C@H](N)C(=O)O; Sar = CNCC(=O)O
Provide the reported IC50 of each item.

input: For the molecule CCC[C@H](NC(=O)[C@@H]1CSCc2cccc(c2)CSC[C@H](NC(=O)[C@H](CCC)NC(C)=O)C(=O)N[C@@H](c2ccccc2)C(=O)N[C@@H]([C@@H](C)O)C(=O)N[C@@H](Cc2c[nH]c3ncccc23)C(=O)N[C@@H](CC(=O)O)C(=O)N[C@@H](Cc2ccc(O)cc2)C(=O)N(C)[C@@H](CO)C(=O)N[C@@H](C)C(=O)N1)C(N)=O [Compound R3097] (Ac-[Nva]C[Phg]T[Trp(7-aza)]DY[NMeS]AC[Nva]-NH2; linker 2-10 via mXylylene) , what IC50 is on record?
output: > 100 µM

input: For the molecule CCC[C@H](N)C(=O)N[C@H]1CSCc2cccc(c2)CSC[C@@H](C(=O)N[C@H](C(=O)N(C)[C@@H](C)C(N)=O)c2ccccc2)NC(=O)[C@H](CC(C)C)NC(=O)CN(C)C(=O)[C@H](CC(N)=O)NC(=O)[C@H](c2ccccc2)NC(=O)[C@H](C(C)(C)C)NC(=O)[C@H](Cc2ccc(O)cc2)NC1=O [Compound R3052] (H-[Nva]CY[Tle][Phg]N[Sar]LC[Phg][NMeA]-NH2; linker 2-9 via mXylylene) , what IC50 is on record?
output: > 100 µM

input: For the molecule C#CC[C@H](NC(=O)[C@H](Cc1ccccc1)NC(=O)[C@H](CCC(=O)O)NC(=O)[C@H](Cc1c[nH]c2ccccc12)NC(=O)[C@H](Cc1ccc(O)cc1)NC(=O)[C@@H](NC(=O)[C@H](CC(=O)O)NC(=O)[C@@H]1CSCc2cccc(c2)CSC[C@H](NC(C)=O)C(=O)N[C@@H](C(C)C)C(=O)N[C@@H](CCC(=O)O)C(=O)N[C@@H](CCCNC(=N)N)C(=O)N[C@@H](Cc2ccccc2)C(=O)N1)C(C)C)C(N)=O [Compound R3147] (Ac-CVERFCDVYWEF[Pra]-NH2; linker 1-6 via mXylylene) , what IC50 is on record?
output: 0.138 µM
